Ref: the supplement of paper PMC4466140

Each record here notes measured SPOT peptide array binding signal intensity.
biological target: AgFus1; experiment: SPOT peptide array binding signal intensity (averaged, normalized) (arbitrary units (background-subtracted, floor 0; scale differs between SH3 domains)); higher = stronger binding of the SH3 domain to the peptide

Reference set (6 entries):
>>> obs_value("YSRKKLPVVLSKMTL")
109
>>> obs_value("EQEEIAPSLPSRNSI")
"≤ 0"
>>> obs_value("LRWRHKFFLPAIAAI")
299
>>> obs_value("NIKVLLNPKLGKPVK")
316
>>> obs_value("VPPVPLPFGIPPFPM")
"≤ 0"
>>> obs_value("HGKRRAPLLLAKLDV")
93

Now look at this one.
State, in one line, measured SPOT peptide array binding signal intensity of `GKLKHIPRRPYEIER`
10
